- testSystem: T1, HER2 (human, UniProt P04626 23-652)
- T1 construct: The ELISA is not described; also called ERBB2; CD340
- protocolNotes: ELISA, format not described
- Set-up: unit not given here
# label = True if ELISA_avg >= 8 else False

>  <binder>
HER2-binding D domain SEQ ID NO: 838 (designed binder) MGSWWEFNVRLSAIRYRLLALGGSEAELAAFEKEIAAFESELQAYKGKGNPEVEDLRASAAQIRAMLQAYRHN

>  <groupLabel>
False

$$$$
>  <binder>
HER2-binding D domain SEQ ID NO: 826 (designed binder) MGSWTEFWWRLSAIVYRLNALGGSEAELAAFEKEIAAFESELQAYKGKGNPEVEELRDMAADIRSLLQAYRHN

>  <groupLabel>
False

$$$$
>  <binder>
HER2-binding D domain SEQ ID NO: 811 (designed binder) MGSWWGFKVNLAWIKWKLEALGGSEAELAYFELWIANFEHSLQEYKGKGNPEVEALRKEAAAIRDELQAYRHN

>  <groupLabel>
True

$$$$
